# system under test: soluble guanylate cyclase (sGC) (Homo sapiens, UniProt Q02108+Q02153)
# Construct: endogenously expressing soluble guanylate cyclase (sGC); endogenous in cells; host or cells: HEK293
# Sequence (Q02153 whole entry): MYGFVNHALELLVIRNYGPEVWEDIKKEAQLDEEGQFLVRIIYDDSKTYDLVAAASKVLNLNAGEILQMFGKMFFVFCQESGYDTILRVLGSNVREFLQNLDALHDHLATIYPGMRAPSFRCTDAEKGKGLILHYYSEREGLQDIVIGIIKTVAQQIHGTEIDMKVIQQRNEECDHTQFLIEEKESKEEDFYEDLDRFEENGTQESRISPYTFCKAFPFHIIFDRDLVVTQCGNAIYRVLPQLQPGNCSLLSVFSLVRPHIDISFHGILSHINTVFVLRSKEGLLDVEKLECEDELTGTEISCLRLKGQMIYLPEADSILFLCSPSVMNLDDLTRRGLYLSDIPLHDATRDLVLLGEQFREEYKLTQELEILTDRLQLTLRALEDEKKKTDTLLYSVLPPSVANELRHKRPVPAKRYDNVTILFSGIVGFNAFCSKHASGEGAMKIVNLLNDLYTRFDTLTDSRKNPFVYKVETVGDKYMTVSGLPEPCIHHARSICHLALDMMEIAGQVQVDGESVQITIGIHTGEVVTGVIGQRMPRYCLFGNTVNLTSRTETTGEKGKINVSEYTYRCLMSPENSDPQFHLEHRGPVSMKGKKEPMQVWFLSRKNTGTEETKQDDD
# Sequence (Q02108 whole entry): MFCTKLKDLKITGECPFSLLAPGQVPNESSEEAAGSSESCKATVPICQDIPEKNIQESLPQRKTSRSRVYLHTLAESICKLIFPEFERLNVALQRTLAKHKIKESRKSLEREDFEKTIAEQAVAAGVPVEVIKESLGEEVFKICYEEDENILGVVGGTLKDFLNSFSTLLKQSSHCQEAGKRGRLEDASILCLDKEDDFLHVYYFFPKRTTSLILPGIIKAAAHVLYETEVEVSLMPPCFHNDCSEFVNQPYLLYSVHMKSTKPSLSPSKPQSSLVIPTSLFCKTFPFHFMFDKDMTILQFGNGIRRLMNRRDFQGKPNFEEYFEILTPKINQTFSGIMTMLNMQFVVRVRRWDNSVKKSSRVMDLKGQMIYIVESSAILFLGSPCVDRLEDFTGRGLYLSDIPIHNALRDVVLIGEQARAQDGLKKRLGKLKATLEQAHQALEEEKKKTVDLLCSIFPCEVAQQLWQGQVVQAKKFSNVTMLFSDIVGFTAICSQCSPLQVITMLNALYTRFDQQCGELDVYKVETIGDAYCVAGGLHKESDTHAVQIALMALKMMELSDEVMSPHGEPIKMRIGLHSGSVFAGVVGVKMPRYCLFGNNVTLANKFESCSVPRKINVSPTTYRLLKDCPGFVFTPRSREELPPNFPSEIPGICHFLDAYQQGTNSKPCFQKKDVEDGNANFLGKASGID
# measurement notes: sGC-HEK-cGMP assay
# Type: cell-based
# condition set: compound at 10 μM, HEK293 cells, 10 μM SNP; percentage of sGC activity obtained with positive control BAY 41-2272 (= 100%)
measure: Emax at 10 µM

Here is how some molecules turned out for Emax at 10 µM.
smiles input: Nc1ccnc(-c2nc(-c3cscn3)n(Cc3ccccc3F)n2)c1
measure: Emax at 10 µM
observed result: 40 to 60%

smiles input: Fc1ccccc1Cn1nc(-c2ccccn2)nc1-c1ccon1
measure: Emax at 10 µM
observed result: 40 to 60%

smiles input: Fc1ccccc1Cn1nc(-c2cscn2)nc1-c1cc(Br)ccn1
measure: Emax at 10 µM
observed result: 0 to 5%

smiles input: Nc1ccnc(-c2nc(-c3nccs3)n(Cc3ccccc3F)n2)n1
measure: Emax at 10 µM
observed result: 40 to 60%

smiles input: Fc1ccccc1Cn1nc(-c2ncco2)nc1-c1ccccn1
measure: Emax at 10 µM
observed result: 0 to 5%

smiles input: Fc1ccccc1Cn1nc(-c2ncccn2)nc1-c1nccs1
measure: Emax at 10 µM
observed result: 10 to 20%

smiles input: Fc1ccccc1Cn1nc(-c2cocn2)nc1-c1ccccn1
measure: Emax at 10 µM
observed result: 0 to 5%

smiles input: Fc1ccccc1Cn1nc(-c2cnccn2)nc1-c1cscn1
measure: Emax at 10 µM
observed result: 10 to 20%

Give a short answer stating reported Emax at 10 µM for "Fc1ccccc1Cn1nc(-c2cc(N3CCOCC3)ccn2)nc1-c1cocn1" .
20 to 40%

Give a short answer stating reported Emax at 10 µM for "Cc1nc(-c2ncccn2)nn1Cc1ccccc1F" .
0 to 5%

Give a short answer stating reported Emax at 10 µM for "Fc1ccccc1Cn1nc(-c2ccccn2)nc1-c1ncccn1" .
0 to 5%

Give a short answer stating reported Emax at 10 µM for "Fc1ccccc1Cn1nc(-c2ncccn2)nc1-c1cocn1" .
20 to 40%

Give a short answer stating reported Emax at 10 µM for "Fc1ccccc1Cn1nc(-c2ncccn2)nc1-c1ccccn1" .
0 to 5%

Give a short answer stating reported Emax at 10 µM for "Fc1ccccc1Cn1nc(-c2cscn2)nc1-c1ccccn1" .
5 to 10%

Give a short answer stating reported Emax at 10 µM for "Fc1ccccc1Cn1nc(-c2ccccn2)nc1-c1ccccc1" .
5 to 10%

Give a short answer stating reported Emax at 10 µM for "Fc1ccccc1Cn1nc(-c2ccccn2)nc1Br" .
0 to 5%

Give a short answer stating reported Emax at 10 µM for "Fc1ccc(-c2nc(-c3nccs3)nn2Cc2ccccc2F)nc1" .
5 to 10%

Give a short answer stating reported Emax at 10 µM for "NC(=O)c1ccnc(-c2nc(-c3nccs3)n(Cc3ccccc3F)n2)c1" .
10 to 20%

Give a short answer stating reported Emax at 10 µM for "Fc1ccccc1Cn1nc(-c2nccs2)nc1-c1cccc(Br)n1" .
0 to 5%

Give a short answer stating reported Emax at 10 µM for "Fc1ccccc1Cn1nc(-c2cc(Br)ccn2)nc1-c1cscn1" .
20 to 40%

Give a short answer stating reported Emax at 10 µM for "Nc1nc(-c2nc(-c3nccs3)n(Cc3ccccc3F)n2)nc(N)c1N" .
0 to 5%

Give a short answer stating reported Emax at 10 µM for "Fc1ccccc1Cn1nc(-c2ncccn2)nc1-c1ccccc1" .
0 to 5%

Where do these numbers come from? They come from patent US9061030B2.
